# Test system: 633275-114-R-J1-PDC complex spheroids, viability
# protocol-details: Anticancer human tumor 633275-114-R-J1-PDC patient-derived endometrial adenocarcinoma cell line growth inhibition [GQUAD]
# condition-info: second compound 3.16 µM; first compound 0.00999 µM; hits give low values
readout-type: viability, T/C (%)
I only need the number, in %, no unit after it.

Answered examples (2):
Enquiry: Please report the recorded viability, T/C for Cn1ncnc1[C@H]1c2n[nH]c(=O)c3cc(F)cc(c23)N[C@@H]1c1ccc(F)cc1 + CN(C)c1ccc(Nc2c3ccc(NC(=O)CCN4CCCC4)cc3nc3cc(NC(=O)CCN4CCCC4)ccc23)cc1 .
Return: 79.7

Enquiry: Can you handle Cn1ncnc1[C@H]1c2n[nH]c(=O)c3cc(F)cc(c23)N[C@@H]1c1ccc(F)cc1 + Cc1[nH]c2ccc(F)cc2c1-c1nc2c3cccnc3c3ncccc3c2[nH]1 next?
Return: 65.1

Okay, next one:
Enquiry: Please report the recorded viability, T/C for CC[C@@]1(O)C(=O)OCc2c1cc1n(c2=O)Cc2cc3c(CN(C)C)c(O)ccc3nc2-1 + Cc1cnc(CNC(=O)c2c(=O)c3ccc(N4CCCN(C)CC4)nc3n3c2sc2ccccc23)cn1 .
Return: 37.7

* * *

Each record here notes measured viability, T/C.
# Test system: 633275-114-R-J1-PDC complex spheroids, viability
# protocol-details: Anticancer human tumor 633275-114-R-J1-PDC cell line growth inhibition [GQUAD];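 also: spheroids exposed to the agents for seven days; percent of DMSO vehicle control viability which is 100%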
# condition-info: second compound 3.16 µM; first compound 0.00999 µM; hits give low values
I only need the number, in %, no unit after it.

Answered examples (2):
Enquiry: Please report the recorded viability, T/C for CCc1c2c(nc3ccc(O)cc13)-c1cc3c(c(=O)n1C2)COC(=O)[C@]3(O)CC + Cc1[nH]c2ccc(F)cc2c1-c1nc2c3cccnc3c3ncccc3c2[nH]1 .
Return: 33.2

Enquiry: Can you handle CC[C@@]1(O)C(=O)OCc2c1cc1n(c2=O)Cc2cc3c(CN(C)C)c(O)ccc3nc2-1 + CN(C)c1ccc(Nc2c3ccc(NC(=O)CCN4CCCC4)cc3nc3cc(NC(=O)CCN4CCCC4)ccc23)cc1 next?
Return: 80.7

Okay, next one:
Enquiry: Please report the recorded viability, T/C for Cn1ncnc1[C@H]1c2n[nH]c(=O)c3cc(F)cc(c23)N[C@@H]1c1ccc(F)cc1 + Cc1cnc(CNC(=O)c2c(=O)c3ccc(N4CCCN(C)CC4)nc3n3c2sc2ccccc23)cn1 .
Return: 36.6

* * *

# System: 633275-114-R-J1-PDC complex spheroids, viability
# protocol-details: Anticancer human tumor 633275-114-R-J1-PDC cell line growth inhibition [GQUAD];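 also: spheroids exposed to the agents for seven days; percent of DMSO vehicle control viability which is 100%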
# condition-info: second compound 0.1 µM; first compound 0.0999 µM; hits give low values
# Text: DNA G-quadruplex Stabilizer Agents in Combinations in Complex Spheroids A high-throughput screen of multi-cell type tumor spheroids was designed to identify active combinations of DNA G-quadruplex stabilizer agents and targeted small molecules. […] Compounds. […] If the clinical Cmax for an agent had not been determined, the highest concentration tested was 10 microM. […]
Each record here notes measured viability, T/C.

Enquiry: Please report the recorded viability, T/C for CC[C@@]1(O)C(=O)OCc2c1cc1n(c2=O)Cc2cc3c(CN(C)C)c(O)ccc3nc2-1 + CN(C)c1ccc(Nc2c3ccc(NC(=O)CCN4CCCC4)cc3nc3cc(NC(=O)CCN4CCCC4)ccc23)cc1 .
Return: 42%

More entries:
Enquiry: Please report the recorded viability, T/C for CCc1c2c(nc3ccc(O)cc13)-c1cc3c(c(=O)n1C2)COC(=O)[C@]3(O)CC + CN(C)c1ccc(Nc2c3ccc(NC(=O)CCN4CCCC4)cc3nc3cc(NC(=O)CCN4CCCC4)ccc23)cc1 .
Return: 30.2%

Enquiry: Can you handle Cc1[nH]c2ccccc2c1CCNCc1ccc(/C=C/C(=O)NO)cc1 + CN(C)c1ccc(Nc2c3ccc(NC(=O)CCN4CCCC4)cc3nc3cc(NC(=O)CCN4CCCC4)ccc23)cc1 next?
Return: 43%

Enquiry: Can you handle Cn1ncnc1[C@H]1c2n[nH]c(=O)c3cc(F)cc(c23)N[C@@H]1c1ccc(F)cc1 + CN(C)c1ccc(Nc2c3ccc(NC(=O)CCN4CCCC4)cc3nc3cc(NC(=O)CCN4CCCC4)ccc23)cc1 next?
Return: 70.6%

Enquiry: Can you handle CCc1c2c(nc3ccc(O)cc13)-c1cc3c(c(=O)n1C2)COC(=O)[C@]3(O)CC + Cc1[nH]c2ccc(F)cc2c1-c1nc2c3cccnc3c3ncccc3c2[nH]1 next?
Return: 27.3%

Enquiry: Can you handle Cc1[nH]c2ccccc2c1CCNCc1ccc(/C=C/C(=O)NO)cc1 + Cc1cnc(CNC(=O)c2c(=O)c3ccc(N4CCCN(C)CC4)nc3n3c2sc2ccccc23)cn1 next?
Return: 25.4%
